Readings of TGI for the listed compounds
system: NCI-H226 lung; assay: NCI tumour cell line growth inhibition, 48 h
measured.property: TGI

- CC(=O)Nc1ccc(CNc2cc(=O)n(C)c(=O)[nH]2)cc1: > 100 µM
- CN(C)c1nc2n(CCO)c(-c3ccccc3)c(-c3ccccc3)nc-2c(=O)n1: > 100 µM
- CC1CCC(O)(C(C)(C(=O)O)c2ccccc2)CC1 (stereo not given): > 100 µM
- CCOC(=O)CC1(O)CCCCC1(Sc1ccc(C)cc1)Sc1ccc(C)cc1 (stereo not given): > 100 µM
- CCOC(=O)C1=C(O)CSC1=Nc1ccccc1: > 100 µM
- N#Cc1c(NCCc2ccc(F)cc2)c2ccccc2n2c1nc1ccccc12: 55.4 µM
- COc1ccc(C2=NN(C(=O)c3cc(OC)c(OC)c(OC)c3)C(c3ccc(Cl)cc3)C2)cc1OC (stereo not given): > 57.7 µM
- Cc1nn(C(=O)c2ccc(Cl)cc2)c2c1C(c1cccc([N+](=O)[O-])c1)SC(N)=N2 (stereo not given): > 10 µM
- O=C(N/C(=C\c1cccc([N+](=O)[O-])c1)c1nc2[nH]c(=S)[nH]c(=O)c2[nH]1)c1ccccc1: > 100 µM
- C1C[S][Ge]2([S]CCO1)[S]CCOCC[S]2: > 100 µM

---

tested on: SNB-19 CNS; experiment: NCI tumour cell line growth inhibition, 48 h; in the data active = GI50 below about 0.43 µM; inactive = the rest
Possible outcomes: active, inactive

* O=C(CCCN1CCOCC1)Nc1ccc(Cn2nnc3c2C(=O)c2nnn(Cc4ccc(NC(=O)CCCN5CCOCC5)cc4)c2C3=O)cc1 | inactive
* O=C(Nc1cccc(Oc2nnc(Cl)c3ccccc23)c1)Nc1ccc(Cl)c(C(F)(F)F)c1 | inactive
* O=C(c1ccco1)c1nc2cc(F)ccc2[n+]([O-])c1C(F)(F)F | inactive
* CC(=O)O[C@H](C[C@H](C(C)C)N(C)C(=O)[C@@H](NC(=O)[C@H]1CCCCN1C)C(C)C)c1nc(C(=O)N[C@@H](Cc2ccccc2)C[C@H](C)C(=O)O)c(C(C)C)s1 | active
* Oc1c(CN2CCCC2)cc(COCc2ccc(Br)cc2)c2cccnc12 | inactive
* Cc1cccc(C(=O)/C=C/SC(=NC#N)SCc2ccccc2)c1 | inactive
* CC/C=C\C/C=C\C[C@H](O)C/C=C1/C(=O)C=C[C@@H]1C/C=C\CCCC(=O)O | inactive
* Cn1c(O)c(C(/C=C/c2ccccc2)=NCCN=C(/C=C/c2ccccc2)c2c(O)n(C)c(=O)n(C)c2=O)c(=O)n(C)c1=O | inactive

---

system: OVCAR-8 ovarian; assay: NCI tumour cell line growth inhibition, 48 h
measured.property: TGI

- C/C1=C/C2=CC(C)C[C@@H]2C(=O)[C@]2(C)C(=O)CC(C)(C)[C@H]2CC1=O (stereo partly specified): > 50 µM
- CC1CCC(O)(C(C)(C(=O)O)c2ccccc2)CC1 (stereo unspecified): > 100 µM
- C/C(=N\Oc1cc(Cl)ncn1)c1ccccn1: > 100 µM
- O=S(=O)(O)c1ccc(-c2nnc(-c3ccccn3)nc2-c2ccc(S(=O)(=O)O)o2)o1: > 100 µM
- Cc1ccc(S(=O)(=O)/N=C(\N)N(C)N=O)cc1: > 100 µM
- N#Cc1c(NCCc2ccc(F)cc2)c2ccccc2n2c1nc1ccccc12: 25.4 µM
- O=C1C2=Nc3ccccc3C(O)N2c2ccccc21 (stereo unspecified): > 100 µM
- CCCc1c[nH]c(-c2ccc(-c3cc(CCC)c(C=O)[nH]3)s2)c1: 26.5 µM
- CCOC(=O)/C=C/c1cc2cc(-c3csc4ccccc34)ccc2[nH]1: 13.7 µM
- CN(Cc1cnc2nc(N)nc(N)c2n1)c1ccc(C(=O)NCS(=O)(=O)O)cc1: > 100 µM
- COCc1cc2c(cc1/C(=C/[N+](=O)[O-])CS(=O)(=O)c1ccccc1)OCO2: > 100 µM

---

tested on: U251 CNS
Possible outcomes: active, inactive

• COc1cnc2c(c1)C(=O)c1c-2n(CCCN2CCC(O)CC2)c(=O)c2cc(F)ccc12 = active
• CO/N=C(\C)c1cccc(Nc2cc(-c3ccccc3)nc3c(O)cccc23)c1 = inactive
• C=CC[P+](c1ccccc1)(c1ccccc1)c1ccccc1 = inactive
• Cn1cc(C2=C(c3cccnc3)C(=O)NC2=O)c2ccccc21 = inactive
• CC(=O)O[C@H](C[C@H](C(C)C)N(C)C(=O)[C@@H](NC(=O)[C@H]1CCCCN1C)C(C)C)c1nc(C(=O)N[C@@H](Cc2ccccc2)C[C@H](C)C(=O)O)c(C(C)C)s1 = active
• Cc1cccc(C(=O)/C=C/SC(=NC#N)SCc2ccccc2)c1 = inactive
• O=C(c1ccco1)c1nc2cc(F)ccc2[n+]([O-])c1C(F)(F)F = inactive
• CC(C)(C)c1[nH]cnc1/C=c1\[nH]c(=O)/c(=C/c2ccccc2)[nH]c1=O = active
• CCOC(=O)C1=C(C)NC2SC(=O)/C(=C\c3ccccc3O)N2C1c1ccccc1 (stereo unspecified) = inactive
• CN1CCN(Cc2ccc(NC(=O)c3cncc(C#Cc4cncc5ncccc45)c3)cc2C(F)(F)F)CC1 = inactive
• O=[N+]([O-])c1ccc2c(N3CCC(CCCC4CCN(c5ncnc6cc([N+](=O)[O-])ccc56)CC4)CC3)ncnc2c1 = inactive

---

tested on: CAKI-1 renal; experiment: NCI tumour cell line growth inhibition, 48 h
Where a SMILES comes first, the peptide text is derived from it. The star is where a group is joined. Pentanoyl = CCCCC(=O)*; Boc = CC(C)(C)OC(=O)*
measured.property: TGI

* Cc1cccc(C(=O)/C=C/SC(=NC#N)SCc2ccccc2)c1 | 39.3 µM
* C/C(=C\C1=C(Cl)C(=O)c2ccccc2C1=O)C(=O)O | 36.6 µM
* CC(=O)OC/C=C/Cn1ncc(=O)[nH]c1=O | > 100 µM
* CCCCC(=O)Oc1ccc(CC(NC(=O)OC(C)(C)C)C(=O)NC(C)C(=O)NC(Cc2ccccc2)C(=O)NCC(N)=O)cc1 (centres undefined) (Boc-Y(Pentanoyl)AFG-NH2; configuration not given here) | > 100 µM
* O=C1c2ccccc2C(=Cc2ccccc2)c2ccccc21 | 5.49 µM
* Cc1cnc(-c2c[nH]c3ccccc23)nc1-c1c[nH]c2ccccc12 | 23.2 µM
* CN(C)CCNC(=O)Cn1cc([N+](=O)[O-])c(=O)c2ccccc21 | > 100 µM
* O=C(O)[C@@H]1CCC(=O)N1C(c1ccc2c(c1)OCO2)c1ccc2c(c1)OCO2 | > 100 µM
* CCN1C(=O)NC(=O)C(C)(N2C(=O)c3c(F)c(F)c(F)c(F)c3C2=O)C1=O (centres undefined) | 4.86 µM
* CC(=O)c1cc2c(cc1Nc1c3ccccc3nc3occ(Cl)c13)OCO2 | > 100 µM
* O=C1C2=Nc3ccccc3C(O)N2c2ccccc21 (centres undefined) | > 100 µM
* COc1c(NC(C)=O)cc(C)cc1NC(C)=O | > 100 µM
* N#Cc1c(NCCc2ccc(F)cc2)c2ccccc2n2c1nc1ccccc12 | 29.1 µM
* C=CC(C)(O)/C=C/C=C(\C)C(CC1OC1(C)C)OC(=O)/C(C)=C\C (centres undefined) | > 100 µM
* COc1ccc2c3c(n(Cc4ccccc4)c(=O)c2c1)-c1cc(OC)c(OC)cc1C3C (centres undefined) | > 100 µM
* COC(=O)C1C(OC(=O)C(Cl)(c2ccccc2)c2ccccc2)CC2CCC1N2C (centres undefined) | > 100 µM
* COc1ccc(C(=O)C(C(=O)C(=O)Nc2ccc(Cl)c(Cl)c2)c2ccc(OC)cc2)cc1 (centres undefined) | > 100 µM
* Nc1c(-c2nc3ccccc3o2)sc(=S)n1-c1ccc(Cl)cc1 | 53.4 µM
* CCOC(=O)c1cc2c(nc1N)-c1ncccc1CC2 | > 100 µM
* CCOC(=O)[C@H](O)[C@@H](O)C(=O)NCc1ccc(C(=O)c2ccccc2)cc1 | > 100 µM
* CCOC(=O)/C=C/c1cc2cc(-c3csc4ccccc34)ccc2[nH]1 | 15.2 µM
* CCN1C(NN)=NS(=O)(=O)c2ccccc21 | > 100 µM
* CN1CCN(Cc2ccc(NC(=O)c3cncc(C#Cc4cncc5ncccc45)c3)cc2C(F)(F)F)CC1 | 16.4 µM
* CC(=O)c1c(C)n(C)c2c1nnc1ccccc12 | > 100 µM
* O=S(=O)(O)c1ccc(-c2nnc(-c3ccccn3)nc2-c2ccc(S(=O)(=O)O)o2)o1 | > 100 µM
* O=C(c1ccc2ccccc2c1)N(Cc1cccnc1)C(=S)N(Cc1cccnc1)C(=O)c1ccc2ccccc2c1 | 44 µM
* O=C1C(C(c2ccccc2)N2CCOCC2)=C(O)C(c2ccccc2)N1c1ccccc1 (centres undefined) | > 10 µM
* O=C(CSC(c1ccccc1)c1ccccc1)N/N=C/c1cccc(Cl)c1 | 52.5 µM
* O=C(O)NCc1ccccc1 (tested in a mixture with another compound) | > 100 µM
* N#C/C(=C\c1ccc(O)c(O)c1)C(=O)NC1CCC(CC2CCC(NC(=O)/C(C#N)=C/c3ccc(O)c(O)c3)CC2)CC1 (centres undefined) | > 29.3 µM
* O=C1C(Cl)=C(N2C(=O)CCCC2=O)C(=O)c2ccccc21 | 27.2 µM
* CC/C(=C(/CC)c1ccc([O-])cc1)c1ccc([O-])cc1.CC/C(=C(\CC)c1ccc([O-])cc1)c1ccc([O-])cc1.O=C([CH-]C(=O)c1ccccc1)c1ccccc1.O=C([CH-]C(=O)c1ccccc1)c1ccccc1.O=C([CH-]C(=O)c1ccccc1)c1ccccc1.O=C([CH-]C(=O)c1ccccc1)c1ccccc1.[Ti+4].[Ti+4] | 58.5 µM
* O=C1N(c2ccccc2)C(=O)C2(SC=NN2Cc2ccccc2)N1c1ccccc1 (centres undefined) | > 100 µM
* O1C2C1C1OC1C1OC1C1OC21 (centres undefined) | > 100 µM
* C=CCCCC1SC2=C(CC)CCCN2C1=O (centres undefined) | > 100 µM
* NC(=S)Nc1cc(Cl)ccc1Cl | > 100 µM
* O=C1C(c2c(O)[nH]c3ccc(S(=O)(=O)O)cc23)=Nc2ccc(Br)cc21 | > 100 µM
* C=C1CC[C@@H](Br)C(C)(C)[C@]12CCC(C)(O)C(Cl)C2 (some centres undefined) | 32 µM
* CCOC(=O)[C@H]1Nc2c(cccc2[N+](=O)[O-])[C@H]2OCC[C@@H]12 | > 100 µM
